ASSAY_COMMENT: LogP by HPLC on reversed phase columns (EEC directive 79/831 Annex V.A8), method [a]
Format: physicochemical
RUN_PARAMETERS: LC-UV, acidic range, 0.1% formic acid in water and acetonitrile as eluent (linear gradient 10% to 95% acetonitrile)
The label depends only on LogP[a]: label 1 if it is at least 3, label 0 if it is smaller.

Look over these answered cases.
• Cc1c(NC(=O)c2cccnc2C(F)F)cccc1OCCc1cccc(F)c1 [Example 61] = label 1
• Cc1c(NC(=O)c2cccnc2C(F)F)cccc1OC(C)c1cccc(Cl)c1 (centres unmarked) [Example 51] = label 1

Is LogP[a] for Cc1c(NC(=O)c2cccnc2C(F)F)cccc1N1CCCC1 [Example 104] at or above 3?
label 0

Is LogP[a] for O=C(Nc1cccc(OC2CCCC2)c1C(F)(F)F)c1cccnc1C(F)F [Example 91] at or above 3?
label 1

Is LogP[a] for Cc1c(NC(=O)c2cccnc2C(F)F)cccc1OC(C)C(C)C (centres unmarked) [Example 14] at or above 3?
label 1
